Task for the reader: assign each of the following molecules its reported Human Gastruloid LOAEL.
System: RUES2-GLR human gastruloids
measurement-protocol: Human gastruloid assay, RUES2-GLR line
test-conditions: lowest observable adverse effect level, 72 h

Solved cases (4 shown):
* CC1=C(/C=C/C(C)=C/C=C/C(C)=C/C(=O)O)C(C)(C)CCC1 [Retinoic Acid, All-trans retinoic acid] | 0.0004 µM
* COc1ccccc1Oc1c(NS(=O)(=O)c2ccc(C(C)(C)C)cc2)nc(-c2ncccn2)nc1OCCO | 18 µM
* CCCC(CCC)C(=O)O | 333 µM
* CC(C)Cc1ccc(C(C)C(=O)O)cc1 (centres unmarked) | 63 µM

The molecule listed as O=C1CCC(N2C(=O)c3ccccc3C2=O)C(=O)N1 (centres unmarked) [Thalidomide] has a reported Human Gastruloid LOAEL of 0.4 µM
